# key: entry, value: IC50 (IL-8), ColI-induced IL-8 release from moDC, Donor 6
- TEST_SYSTEM: T1, Human OSCAR (osteoclast-associated receptor), full length, on cells (human)
- T1 chain: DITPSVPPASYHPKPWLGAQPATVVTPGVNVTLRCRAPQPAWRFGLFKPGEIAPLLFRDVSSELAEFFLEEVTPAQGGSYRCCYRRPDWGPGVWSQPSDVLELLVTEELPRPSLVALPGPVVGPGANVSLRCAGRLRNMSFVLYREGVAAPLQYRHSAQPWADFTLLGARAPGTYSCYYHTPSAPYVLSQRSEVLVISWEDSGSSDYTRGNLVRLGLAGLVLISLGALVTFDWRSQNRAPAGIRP
- ASSAY_PROCEDURE: cell-based or functional assay
Could you give me the number in pM? Just the number is fine.

Use the examples below as a reference point.
The binder listed as 6F6B (antibody, V domains shown, Mouse anti-OSCAR mAb) VH: EVQLQQSGAELVKPGASVKLSCTASGFNIKDTYVHWVKQRPDQGLEWIGRIDPAIGNTKYDPKFRGKATITADSSSNTAYLQLSSLTSEDTAVYYCARLSYGNYGLDYSMDYWGQGTSVTVSS VL: DIVLTQSPATLSVTPGDSVSLSCRASQSITNNLHWYQQKSHESPRLLIKYASQSISGIPSRFRGSGSGTDFTLSINSVETEDFGVYFCQQSNTWPRTFGGGTKLEIKR shows IC50 (IL-8), ColI-induced IL-8 release from moDC, Donor 6 equal to 6560

The binder listed as 3F7A9 (antibody, V domains shown, Mouse anti-human OSCAR mAb (its isotype control is mIgG1); The heavy chain entry covers only VH-CH1 and the start of the hinge; also called 3F7A9-1) VH: EIQLQQSGPELVKPGASVKVSCKASGYVFTSYNMYWVKQSHGKSLEWIGYIDPYNGGTRYNQKFKGKATLTVDKSSSTAYMHLNSLTSEDSAVYYCARLDYYGNFYWGQGTTLTVSS VL: DIKMTQSPSSMYASLGERVTITCKASQDINSFLSWLQQKPGKSPKTLIYRANRLVDGVPSRFSGSGSGQDYSLTISSLEYEDMGIYYCLQYDDFPYTFGGGTKLEIKR shows IC50 (IL-8), ColI-induced IL-8 release from moDC, Donor 6 equal to 100

Consider the additional binder presented here.
The binder listed as 4F3B (antibody, V domains shown, Mouse anti-human OSCAR mAb (its isotype control is mIgG1); The heavy chain entry covers only VH-CH1 and the start of the hinge; It was fluorescein-labelled in the peptide array and Alexa Fluor 647-labelled in the flow binning; also called mAb 4F3B) VH: QVQLQQSGAELAKPGASVKMSCKASGFTFTSYWMHWVKQRPGQGLEWIGYINPSTDYTEYNQKFKDKATLTADKSSSTAYMQLSSLTSEDSAVYYCARRSPFAMDYWGQGTSVTVSS VL: DIVMTQSPSSLTVTAGEKVTMSCKSSQSLLNSGNQKNYLTWYQQKPGQPPKVLIYWASTRESGVPDRFTGSGSGTDFTLTISSVQAEDLAVYYCQNDYSYPLTFGTGTKLELKR shows IC50 (IL-8), ColI-induced IL-8 release from moDC, Donor 6 equal to 240
